test: Inhibition of wild type recombinant Mycobacterium tuberculosis PTPB using p-nitrophenyl phosphate as substrate preincubated for 10 mins followed by substrate addition measured for 10 mins by UV-VIS spectrophotometer
pKi: −log10 of the molar value.
measured.property: pKi

cpd_smiles=CC(C)=CCc1c(O)ccc(C(=O)[C@@H]2[C@@H](c3ccc(O)cc3O)CC(C)=C[C@H]2c2c(O)cc(/C=C/c3ccc(O)cc3O)cc2O)c1O measured_property=pKi result_value=5.80
